The reported numbers originate from patent US9464064B2.

Catalogue of Int.* (Ratio) (Interference) values
# TGT: HCV NS3 helicase NS3h_1b(con1) (Hepatitis C virus genotype 1b, UniProt Q9WMX2)
# Construct: truncated C-terminally His-tagged NS3 proteins lacking the N-terminal protease, called NS3h; His-tag (C); made in house
# Sequence (Q9WMX2 1192-1657): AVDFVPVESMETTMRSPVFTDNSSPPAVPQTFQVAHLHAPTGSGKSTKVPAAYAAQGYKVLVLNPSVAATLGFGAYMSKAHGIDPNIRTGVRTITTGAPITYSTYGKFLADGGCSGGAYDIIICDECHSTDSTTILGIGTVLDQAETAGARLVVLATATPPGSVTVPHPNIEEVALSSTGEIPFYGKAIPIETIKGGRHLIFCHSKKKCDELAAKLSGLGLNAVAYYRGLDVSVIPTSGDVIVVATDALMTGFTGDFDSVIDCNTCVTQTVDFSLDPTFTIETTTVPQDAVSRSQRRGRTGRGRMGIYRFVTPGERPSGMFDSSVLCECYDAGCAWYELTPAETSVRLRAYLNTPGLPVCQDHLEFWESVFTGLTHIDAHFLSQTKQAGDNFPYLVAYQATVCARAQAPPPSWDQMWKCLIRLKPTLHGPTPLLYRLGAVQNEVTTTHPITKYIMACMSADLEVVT
# EXPERIMENT: MBHA screen of NCI mechanistic set library at 20 μM (percent inhibition, compound interference)
# Assay type: biochemical
# ASSAY_CONTEXT: compounds at 20 μM; assay interference calculated with Equation 2 (fluorescence vs DMSO-only controls before ATP)
Record the value in Ratio, omitting the unit from your answer.

> print(dat)
                                   compound         experimental.endpoint  obs.value
1  COC(=O)C(=O)C(C(=O)C(=O)Nc1cc(C)ccc1C)c1nc2ccc(C(=O)c3ccccc3)cc2[nH]c1=O (stereo not drawn) [Compound 642040]  Int.* (Ratio) (Interference)       0.90
2  Cc1ccc(S(=O)(=O)SC/C=C/CSS(=O)(=O)c2ccc(C)cc2)cc1 [Compound 624158]  Int.* (Ratio) (Interference)       0.90

**Query** Which Int.* (Ratio) (Interference) is listed for Cn1cnc([N+](=O)[O-])c1Sc1nnc(-c2cccnc2)n1C [Compound 631160] ?
**Result** 0.91
